These entries and their values trace back to patent EP4647082A1.

Assay: Phase I first-in-human study, pharmacokinetics after single ascending subcutaneous doses in healthy volunteers
Format: in vivo
Settings: human, plasma; single SC dose 16 mg; mean
Bridge positions count the residues as written; N and C are the ends. Square brackets hold non-standard residues; d marks the D form. Peptide text beside a SMILES is read from it. * marks the point of attachment. Phe(2-CONH2) = NC(=O)c1ccccc1C[C@H](N)C(=O)O; Orn(iPr) = CC(C)NCCC[C@H](N)C(=O)O; Oxazole2carbonyl = O=C(c1ncco1)*; 3Pal = N[C@@H](Cc1cccnc1)C(=O)O
metric name: CL/F (mL/min)
Please reply with the bare figure in mL/min and do not write the unit itself.

Return reported CL/F; argument: CC(C)NCCC[C@@H]1NC(=O)[C@@H](NC(=O)[C@H](Cc2ccccc2C(N)=O)NC(=O)[C@H](NC(=O)c2ncco2)C(C)C)CSSC[C@@H](C(=O)N[C@@H](Cc2cccnc2)C(N)=O)NC(=O)[C@H](Cc2ccccc2)NC(=O)[C@@H]2CCCN2C(=O)CNC(=O)[C@H](C(C)C)NC(=O)[C@H](CC(=O)O)NC1=O [AXN-001] (Oxazole2carbonyl-[dV][Phe(2-CONH2)]C[Orn(iPr)]DVGPFC[3Pal]-NH2; disulfide 3-10)
222
